Experiment: chemical genetic growth profiling, strain panel (AID 1159580);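 further: tested at 20 µM; growth read once vehicle control cultures reached saturation at 30 °C; 1 = growth at the plate median or of vehicle wells; lower values mean less growth of the strain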
Conditions: S. cerevisiae deletion strains, growth OD, locus YEL037C, strain rad23, stronger effect = lower value
Among all 5,500 compounds or so, about 2,000 (36%) were called active. About 18% were inconclusive and are not listed. The list shows a part of the results.
Entries and their normalized growth
Give only the figure.

Could you tell me which normalized growth is on file for "N[C@@H]1[C@@H](O)[C@H](O)[C@@H](CO)O[C@H]1O" ? 1.02

So what's the measured normalized growth for this one? "O=[N+]([O-])c1cccc2c(Br)[nH]nc12" 0.99

Consider the compound shown here: "O=C(O)CCCOc1ccc(Cl)cc1Cl" What is its recorded normalized growth? 0.954

Which value of normalized growth has been reported for OC[C@H]1OC([S-])[C@H](O)[C@@H](O)[C@@H]1O.[Au+] (some centres undefined) in the records? 1.01

Bench note: what normalized growth did NS(=O)(=O)c1cc2c(cc1Cl)NC(C1CC3C=CC1C3)NS2(=O)=O (centres undefined) show? 0.999
